system: VPS34; construct: gene PIK3C3; details: concentration: 1 μM, replicates: in singlicate; n = 1;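 further: KINOMEscan kinase panel screen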
Measured %Inh, listed per entry for reference.
Numeric answer only, unit % assumed.

Given O=C(Nc1cccc(-c2nn3ncccc3c2-c2ccnc(Nc3cccc(C(F)(F)F)c3)n2)c1)c1c(F)cccc1F , respond with its %Inh. 0

Answer with the recorded %Inh of COc1ccc(Nc2ncc(C#N)c(Nc3ccccc3C(N)=O)n2)cc1N1CCN(C)CC1.Cl only. 43

Return value of %Inh for input Cc1c2ccc(N(C)c3ccnc(Nc4cccc(S(N)(=O)=O)c4)n3)cc2nn1Cc1ccccc1.Cl.Cl , no commentary. 0

For the compound Fc1ccc(-c2ncn(CCCN3CCOCC3)c2-c2ccccn2)cc1 , give its reported %Inh. 20

Return value of %Inh for input COc1ccc(S(=O)(=O)NC2CCN(c3cc(C)nc(Nc4cccc(C#N)c4)n3)CC2)cc1.O=C(O)C(F)(F)F , no commentary. 0

Name the recorded %Inh of the compound listed here: NS(=O)(=O)CCc1cccc(Nc2nccc(-c3c(-c4cccc(NC(=O)c5c(F)cccc5F)c4)nn4ccccc34)n2)c1 0

Then this compound:
Identify measured %Inh corresponding to NCC(NC(=O)c1cc(-c2cn[nH]c2)c(-c2ccnc3[nH]ccc23)s1)c1ccccc1.O=C(O)C(F)(F)F.O=C(O)C(F)(F)F (stereo not shown) 59
